Target: hMC4-R (Homo sapiens (Human), UniProt P32245)
Sequence (P32245 whole entry): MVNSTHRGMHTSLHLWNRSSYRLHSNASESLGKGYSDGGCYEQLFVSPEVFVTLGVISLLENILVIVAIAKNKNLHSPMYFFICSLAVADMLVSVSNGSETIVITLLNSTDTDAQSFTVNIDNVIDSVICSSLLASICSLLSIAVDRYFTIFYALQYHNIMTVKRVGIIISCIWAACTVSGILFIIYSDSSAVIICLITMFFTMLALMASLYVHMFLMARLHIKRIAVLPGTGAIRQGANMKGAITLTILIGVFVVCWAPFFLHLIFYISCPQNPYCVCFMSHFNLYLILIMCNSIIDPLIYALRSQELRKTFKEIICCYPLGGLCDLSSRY
Assay: High and low density hMC4-R functional assay (cAMP, HEK293-T-REx-MC4-R cells)
Type: cell-based
Details: 10 ng/mL Doxycycline (high density hMC4-R system)
pEC50: −log10 of the molar value. Positions of bridges follow the written chain, without caps; N, C: chain ends. Non-standard residues stand in square brackets, D forms with d. Residues, ends and D or L forms follow the SMILES beside them. dPhe(2-F) = N[C@H](Cc1ccccc1F)C(=O)O; Orn = NCCC[C@H](N)C(=O)O
Attribute Measured: pEC50

Compound	Result Value
CC(=O)N[C@@H](CCCNC(=N)N)C(=O)N[C@H]1CCCNC(=O)CC[C@@H](C(N)=O)NC(=O)[C@H](Cc2c[nH]c3ccccc23)NC(=O)[C@H](CCCNC(=N)N)NC(=O)[C@@H](Cc2ccccc2F)NC(=O)[C@@H]2CCCN2C1=O [Example 105] (Ac-R[Orn]P[dPhe(2-F)]RWE-NH2; lactam 2-7)	9.82
CC(=O)N[C@H](CCCNC(=N)N)C(=O)N[C@H]1CCCNC(=O)CC[C@@H](C(N)=O)NC(=O)[C@H](Cc2c[nH]c3ccccc23)NC(=O)[C@H](CCCNC(=N)N)NC(=O)[C@@H](Cc2ccc(F)c(F)c2)NC(=O)[C@H](Cc2c[nH]cn2)NC1=O [Example 54]	10.12
CC(=O)N[C@H](CCCNC(=N)N)C(=O)N[C@H]1CCCNC(=O)CC[C@@H](C(N)=O)NC(=O)[C@H](Cc2c[nH]c3ccccc23)NC(=O)[C@H](CCCNC(=N)N)NC(=O)[C@@H](Cc2cccc(Cl)c2)NC(=O)[C@H](Cc2c[nH]cn2)NC1=O [Example 51]	9.40

---

Target: hMC4-R (Homo sapiens (Human))
Assay: High and low density hMC4-R functional assay (cAMP, HEK293-T-REx-MC4-R cells)
Type: cell-based
Settings: 10 ng/mL Doxycycline (high density hMC4-R system); NDP-α-MSH = 100%; read-out: Intrinsic Activity (%)
# maps each entry to its Emax

Smiles Entry	Tested Target	Emax, %
CC(=O)N[C@@H](CCCNC(=N)N)C(=O)N[C@H]1CCC(=O)NCCC[C@@H](C(N)=O)NC(=O)[C@H](Cc2c[nH]c3ccccc23)NC(=O)[C@H](CCCNC(=N)N)NC(=O)[C@@H](Cc2ccc(C(C)(C)C)cc2)NC(=O)[C@H](CCN)NC1=O	hMC4-R (Homo sapiens (Human))	9
CC(=O)N[C@@H](CCCNC(=N)N)C(=O)N[C@H]1CCC(=O)NCCC[C@@H](C(N)=O)NC(=O)[C@H](Cc2c[nH]c3ccccc23)NC(=O)[C@H](CCCNC(=N)N)NC(=O)[C@@H](Cc2cccc(C)c2)NC(=O)[C@H](CCN)NC1=O	hMC4-R (Homo sapiens (Human))	97
CC(=O)N[C@@H](CCCNC(=N)N)C(=O)N[C@H]1CCC(=O)NCCC[C@@H](C(N)=O)NC(=O)[C@H](Cc2c[nH]c3ccccc23)NC(=O)[C@H](CCCNC(=N)N)NC(=O)[C@@H](Cc2ccccc2Cl)NC(=O)[C@@H]2C[C@@H](O)CN2C1=O	hMC4-R (Homo sapiens (Human))	98
COc1ccc(C[C@H]2NC(=O)[C@H](CCN)NC(=O)[C@@H](NC(=O)[C@H](CCCNC(=N)N)NC(C)=O)CCC(=O)NCCC[C@@H](C(N)=O)NC(=O)[C@H](Cc3c[nH]c4ccccc34)NC(=O)[C@H](CCCNC(=N)N)NC2=O)cc1	hMC4-R (Homo sapiens (Human))	97
CC(=O)N[C@@H](CCCNC(=N)N)C(=O)N[C@H]1CCC(=O)NCCC[C@@H](C(N)=O)NC(=O)[C@H](Cc2c[nH]c3ccccc23)NC(=O)[C@H](CCCNC(=N)N)NC(=O)[C@@H](Cc2ccccc2F)NC(=O)[C@H](CCN)NC1=O	hMC4-R (Homo sapiens (Human))	89

---

Biological target: hMC4-R (Homo sapiens (Human), UniProt P32245)
Test: Competitive inhibition binding assay using [I125]-NDP-α-MSH, hMC4-R
Details: membranes of HEK-293 cells expressing recombinant hMC4-R, read-out: MC4-R Ki
// returns false unless Ki is strictly below 8 nM, in which case true

Smiles Entry	Tested Target	Group
COc1cccc(C[C@H]2NC(=O)[C@H](CCN)NC(=O)[C@@H](NC(=O)[C@H](CCCNC(=N)N)NC(C)=O)CCC(=O)NCCC[C@@H](C(N)=O)NC(=O)[C@H](Cc3c[nH]c4ccccc34)NC(=O)[C@H](CCCNC(=N)N)NC2=O)c1	hMC4-R (Homo sapiens (Human), UniProt P32245)	true
CC(=O)N[C@@H](CCCNC(=N)N)C(=O)N[C@H]1CCC(=O)NCCC[C@@H](C(N)=O)NC(=O)[C@H](Cc2c[nH]c3ccccc23)NC(=O)[C@H](CCCNC(=N)N)NC(=O)[C@@H](Cc2cc(F)cc(F)c2)NC(=O)[C@H](CCN)NC1=O	hMC4-R (Homo sapiens (Human), UniProt P32245)	true
CC(=O)N[C@@H](CCCNC(=N)N)C(=O)N[C@H]1CCC(=O)NCCC[C@@H](C(N)=O)NC(=O)[C@H](Cc2c[nH]c3ccccc23)NC(=O)[C@H](CCCNC(=N)N)NC(=O)[C@@H](Cc2ccc(F)cc2)NC(=O)[C@@H]2CCCN2C1=O	hMC4-R (Homo sapiens (Human), UniProt P32245)	true
CC(=O)N[C@@H](CCCNC(=N)N)C(=O)N[C@H]1CCC(=O)NCCC[C@@H](C(N)=O)NC(=O)[C@H](Cc2c[nH]c3ccccc23)NC(=O)[C@H](CCCNC(=N)N)NC(=O)[C@@H](Cc2cccc(C(F)(F)F)c2)NC(=O)[C@H](CCN)NC1=O	hMC4-R (Homo sapiens (Human), UniProt P32245)	true
CC(=O)N[C@@H](CCCNC(=N)N)C(=O)N[C@H]1CCCNC(=O)CC[C@@H](C(N)=O)NC(=O)[C@H](Cc2c[nH]c3ccccc23)NC(=O)[C@H](CCCNC(=N)N)NC(=O)[C@@H](Cc2ccc(F)c(F)c2)NC(=O)[C@H](CC(N)=O)NC1=O	hMC4-R (Homo sapiens (Human), UniProt P32245)	true
CC(=O)N[C@@H](CCCNC(=N)N)C(=O)N[C@H]1CCCNC(=O)CC[C@@H](C(N)=O)NC(=O)[C@H](Cc2c[nH]c3ccccc23)NC(=O)[C@H](CCCNC(=N)N)NC(=O)[C@@H](Cc2ccccc2F)NC(=O)[C@H](CC(N)=O)NC1=O	hMC4-R (Homo sapiens (Human), UniProt P32245)	false
CC(=O)N[C@@H](CCCNC(=N)N)C(=O)N[C@H]1CCC(=O)NCCC[C@@H](C(N)=O)NC(=O)[C@H](Cc2c[nH]c3ccccc23)NC(=O)[C@H](CCCNC(=N)N)NC(=O)[C@@H](Cc2ccccc2Cl)NC(=O)[C@H]([C@@H](C)OCc2ccccc2)NC1=O	hMC4-R (Homo sapiens (Human), UniProt P32245)	true
CC(=O)N[C@@H](CCCNC(=N)N)C(=O)N[C@H]1CCC(=O)NCCC[C@@H](C(N)=O)NC(=O)[C@H](Cc2c[nH]c3ccccc23)NC(=O)[C@H](CCCNC(=N)N)NC(=O)[C@@H](Cc2ccc(O)cc2)NC(=O)[C@H](CCN)NC1=O	hMC4-R (Homo sapiens (Human), UniProt P32245)	false
CC(=O)N[C@@H](CCCNC(=N)N)C(=O)N[C@H]1CCC(=O)NCCC[C@@H](C(N)=O)NC(=O)[C@H](Cc2c[nH]c3ccccc23)NC(=O)[C@H](CCCNC(=N)N)NC(=O)[C@@H](Cc2ccc(N)cc2)NC(=O)[C@H](CCN)NC1=O	hMC4-R (Homo sapiens (Human), UniProt P32245)	false
CC(=O)N[C@H](CCCNC(=N)N)C(=O)N[C@H]1CC(=O)NCCCC[C@@H](C(N)=O)NC(=O)[C@H](Cc2c[nH]c3ccccc23)NC(=O)[C@H](CCCNC(=N)N)NC(=O)[C@@H](Cc2ccccc2F)NC(=O)[C@H](CCC(N)=O)NC1=O	hMC4-R (Homo sapiens (Human), UniProt P32245)	false
